Values were extracted from patent US4812442A.

# Target: renin (Homo sapiens, UniProt P00797)
# Sequence (P00797 67-406): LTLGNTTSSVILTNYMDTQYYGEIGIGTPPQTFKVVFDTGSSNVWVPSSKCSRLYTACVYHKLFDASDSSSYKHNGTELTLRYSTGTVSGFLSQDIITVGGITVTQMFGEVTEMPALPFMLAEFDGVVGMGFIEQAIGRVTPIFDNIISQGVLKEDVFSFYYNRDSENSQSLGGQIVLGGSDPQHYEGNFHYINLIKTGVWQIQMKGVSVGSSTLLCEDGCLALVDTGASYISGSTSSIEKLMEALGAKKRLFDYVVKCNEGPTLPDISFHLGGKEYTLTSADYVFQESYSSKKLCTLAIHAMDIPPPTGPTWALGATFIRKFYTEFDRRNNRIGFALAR
# Experiment Summary: Renin inhibition IC50 (methods of J. Med. Chem., 1985, 28, 1789-1790)
# Type: biochemical
# Measurement Context: renin inhibition; read-out: IC50
Here the recorded pIC50 is given for each entry.
Friendly reminder that pIC50 comes from taking -log10 of the concentration in mol/L.

[
  {
    "Molecule": "CC(C)C[C@H](NC(=O)[C@H](Cc1ccccc1)NC(=O)[C@H](Cc1ccccc1)NC(=O)OC(C)(C)C)[C@@H](O)CC(=O)N1CCN(c2cccc[n+]2[O-])CC1 [Example 17]",
    "pIC50": 5.70
  },
  {
    "Molecule": "CC(C)(C)OC(=O)N[C@@H](Cc1ccccc1)C(=O)N[C@@H](Cc1c[nH]cn1)C(=O)N[C@@H](CC1CCCCC1)[C@@H](O)CC(=O)N1CCSCC1 [Example 5, Boc-Phe-His-ACHPA-4-thiamorpholine]",
    "pIC50": 7.72
  },
  {
    "Molecule": "CC(C)(C)OC(=O)N[C@@H](Cc1ccccc1)C(=O)N[C@@H](Cc1c[nH]cn1)C(=O)N[C@@H](CC1CCCCC1)[C@@H](O)CC(=O)N1CC[S+]([O-])CC1 [Example 6]",
    "pIC50": 7.17
  }
]

Ask: What pIC50 value was documented for this molecule, CC(C)(C)OC(=O)N[C@@H](Cc1ccccc1)C(=O)N[C@@H](Cc1c[nH]cn1)C(=O)N[C@@H](CC1CCCCC1)[C@@H](O)CC(=O)NC1CN2CCC1CC2 (some centres unmarked) [Example 1] ?
Reply: 7.48

Ask: What do you get for CC(C)(C)OC(=O)N[C@@H](Cc1ccccc1)C(=O)N[C@@H](Cc1c[nH]cn1)C(=O)N[C@@H](CC1CCCCC1)[C@@H](O)CC(=O)N1CCS(=O)(=O)CC1 [Example 7] ?
Reply: 7.26

----------
# Target: renin (Homo sapiens)
# Experiment Summary: Renin inhibition IC50 (methods of J. Med. Chem., 1985, 28, 1789-1790)
# Format: biochemical
# Measurement Context: renin inhibition; read-out: IC50
pIC50: −log10 of the molar value.
Kindly return 1 if reported pIC50 is no lower than 8; return -1 if it is lower.

Example results:
[
  {
    "Compound": "CC[C@H](C)NC(=O)C[C@H](O)[C@H](CC1CCCCC1)NC(=O)[C@H](Cc1c[nH]cn1)NC(=O)[C@H](Cc1ccccc1)NC(=O)OC(C)(C)C",
    "Discrete Label": -1
  },
  {
    "Compound": "CC(C)(C)OC(=O)N[C@@H](Cc1ccccc1)C(=O)N[C@@H](Cc1c[nH]cn1)C(=O)N[C@@H](CC1CCCCC1)[C@@H](O)CC(=O)NC1C[N+]2([O-])CCC1CC2 (stereo partly drawn)",
    "Discrete Label": -1
  },
  {
    "Compound": "CC[C@H](C)[C@@H](CN(C)C)NC(=O)C[C@H](O)[C@H](CC1CCCCC1)NC(=O)[C@H](Cc1c[nH]cn1)NC(=O)[C@H](Cc1ccccc1)NC(=O)OC(C)(C)C",
    "Discrete Label": 1
  }
]

Consider the additional compound presented here.
Ask: Is pIC50 for `CC[C@H](C)[C@@H](CN)NC(=O)C[C@H](O)[C@H](CC1CCCCC1)NC(=O)[C@H](Cc1c[nH]cn1)NC(=O)[C@H](Cc1ccccc1)NC(=O)OC(C)(C)C` at or above 8?
Reply: -1
